Hey, just so you know, these numbers are from ChEMBL document CHEMBL2380202.

Quick list: pIC50 per entry.
# System: L-lactate dehydrogenase B chain (Homo sapiens, UniProt P07195)
# Sequence (P07195 whole entry): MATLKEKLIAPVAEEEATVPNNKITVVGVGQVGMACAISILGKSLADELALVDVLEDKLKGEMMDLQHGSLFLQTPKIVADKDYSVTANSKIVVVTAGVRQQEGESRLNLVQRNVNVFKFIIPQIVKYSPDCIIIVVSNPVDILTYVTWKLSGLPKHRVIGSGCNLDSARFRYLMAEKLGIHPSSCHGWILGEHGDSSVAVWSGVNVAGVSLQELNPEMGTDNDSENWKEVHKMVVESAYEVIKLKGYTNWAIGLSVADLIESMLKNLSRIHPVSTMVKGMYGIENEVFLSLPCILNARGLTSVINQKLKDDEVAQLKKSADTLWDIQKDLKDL
# Protocol Details: Inhibition of human recombinant carboxy-terminal his-tagged LDHB (1 to 333) expressed in insect cells using pyruvate as substrate after 10 mins by UV endpoint analysis
The read-out pIC50 is expressed as -log10 of concentration in moles per litre.

Consider the worked cases shown below.
query: Return reported pIC50; argument: CC(Sc1nc(-c2ccc(Cl)c(F)c2)c(C#N)c(=O)[nH]1)C(=O)Nc1ccc(S(N)(=O)=O)cc1 (racemic)
result: 5.64

query: Follow-up entry: NC(=O)C(=O)O [OXAMATE]
result: 4.47

query: Follow-up entry: CC(Sc1nc(-c2ccc(Cl)cc2)c(C#N)c(=O)[nH]1)C(=O)Nc1ccc(S(N)(=O)=O)cc1 (racemic)
result: 5.52

New cases:
query: Return reported pIC50; argument: CCC(Sc1nc(-c2ccc(Cl)cc2)c(C#N)c(=O)[nH]1)C(=O)Nc1ccc(S(N)(=O)=O)cc1 (racemic)
result: 5.62

query: Follow-up entry: CCC(Sc1nc(-c2cccc(OC)c2)c(C#N)c(=O)[nH]1)C(=O)Nc1ccc(S(N)(=O)=O)cc1 (racemic)
result: 5.11

query: Follow-up entry: CC(Sc1nc(-c2ccc(Cl)c(Cl)c2)c(C#N)c(=O)[nH]1)C(=O)Nc1ccc(S(N)(=O)=O)cc1 (racemic)
result: 5.43

* * *

# System: UniProt:P40926
# Sequence (P40926 whole entry): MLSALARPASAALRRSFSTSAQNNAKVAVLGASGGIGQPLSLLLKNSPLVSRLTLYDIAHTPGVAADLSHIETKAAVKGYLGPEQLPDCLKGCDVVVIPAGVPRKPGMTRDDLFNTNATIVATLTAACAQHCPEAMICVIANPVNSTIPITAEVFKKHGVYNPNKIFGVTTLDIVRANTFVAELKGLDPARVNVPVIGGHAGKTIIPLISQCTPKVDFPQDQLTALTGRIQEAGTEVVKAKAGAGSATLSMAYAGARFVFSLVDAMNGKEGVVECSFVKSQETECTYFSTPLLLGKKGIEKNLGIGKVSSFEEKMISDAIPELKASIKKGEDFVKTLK
# Protocol Details: Inhibition of human recombinant carboxy-terminal his-tagged MDH-2 (20 to 338) expressed in Escherichia coli using oxaloacetic acid as substrate after 10 mins by UV endpoint analysis
Reported Metric: pIC50
The read-out pIC50 is expressed as -log10 of concentration in moles per litre.

query: Lab request: please report pIC50 under test system UniProt:P40926 for `COc1ccc(CNC(=O)c2cc(=O)c3c(O)cc(OCCc4ccc(NC(=O)C(=O)O)c(OC)c4)cc3o2)cc1`
result: 5.07

* * *

# System: Malate dehydrogenase, cytoplasmic (Homo sapiens)
# Sequence (P40925 whole entry): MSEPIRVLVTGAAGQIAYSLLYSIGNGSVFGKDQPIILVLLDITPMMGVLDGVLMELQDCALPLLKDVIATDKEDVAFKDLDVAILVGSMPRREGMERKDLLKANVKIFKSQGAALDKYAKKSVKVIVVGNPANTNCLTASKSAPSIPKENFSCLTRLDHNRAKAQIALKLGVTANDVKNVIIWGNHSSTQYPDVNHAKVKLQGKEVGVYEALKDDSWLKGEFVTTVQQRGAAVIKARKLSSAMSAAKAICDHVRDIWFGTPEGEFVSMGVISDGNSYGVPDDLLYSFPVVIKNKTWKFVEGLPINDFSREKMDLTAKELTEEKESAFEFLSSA
# Protocol Details: Inhibition of human recombinant carboxy-terminal his-tagged MDH-1 (3 to 334) expressed in Escherichia coli using oxaloacetic acid as substrate after 10 mins by UV endpoint analysis
Reported Metric: IC50 (µM)
// return numeric value only (unit: µM, not printed)

query: Return reported IC50; argument: `COc1ccc(CNC(=O)c2cc(=O)c3c(O)cc(OCCc4ccc(NC(=O)C(=O)O)c(OC)c4)cc3o2)cc1`
result: 6.78

* * *

# System: L-lactate dehydrogenase A chain (Homo sapiens)
# Protocol Details: Binding affinity to human recombinant carboxy-terminal avi-tagged LDHA (1 to 331) expressed in Escherichia coli by surface plasmon resonance analysis absence of NADH
Reported Metric: pKd
The read-out pKd is expressed as -log10 of concentration in moles per litre.

query: Return reported pKd; argument: `N#Cc1c(-c2ccc(Cl)cc2)nc(SCC(=O)Nc2ccc(S(N)(=O)=O)cc2)[nH]c1=O`
result: 3.42

* * *

Quick list: pIC50 per entry.
# System: L-lactate dehydrogenase A chain (Homo sapiens, UniProt P00338)
# Protocol Details: Inhibition of human recombinant carboxy-terminal his-tagged LDHA (1 to 331) expressed in Escherichia coli using pyruvate as substrate after 10 mins by UV endpoint analysis
The read-out pIC50 is expressed as -log10 of concentration in moles per litre.

query: Return reported pIC50; argument: CCC(Sc1nc(-c2cccc(OC)c2)c(C#N)c(=O)[nH]1)C(=O)Nc1ccc(S(N)(=O)=O)cc1 (racemic)
result: 5.13

We next turn to a different molecule, shown below.
query: Return reported pIC50; argument: `CC(C)c1ccc(NC(=O)CSc2nc(-c3ccc(Cl)cc3)c(C#N)c(=O)[nH]2)cc1`
result: 4.65

* * *

# System: L-lactate dehydrogenase A chain (Homo sapiens)
# Protocol Details: Binding affinity to human recombinant carboxy-terminal avi-tagged LDHA (1 to 331) expressed in Escherichia coli by surface plasmon resonance analysis presence of NADH
Doc: threshold 400 µM (exclusive). Items with Kd beneath it return label 1; others return label 0.

query: Below 400 µM on Kd? Entry CC(Sc1nc(-c2ccc(Cl)cc2)c(C#N)c(=O)[nH]1)C(=O)Nc1ccc(S(N)(=O)=O)cc1 (racemic)
result: label 1

query: Follow-up entry: `CCc1ccccc1NC(=O)CSc1nc(-c2ccc(Cl)cc2)c(C#N)c(=O)[nH]1`
result: label 0

New cases:
query: Below 400 µM on Kd? Entry `COc1ccccc1NC(=O)CSc1nc(-c2ccc(Cl)cc2)c(C#N)c(=O)[nH]1`
result: label 0

query: Follow-up entry: `Cc1ccc(NC(=O)CSc2nc(-c3ccc(Cl)cc3)c(C#N)c(=O)[nH]2)cc1Cl`
result: label 0

query: Follow-up entry: `COc1ccc(NC(=O)CSc2nc(-c3ccc(Cl)cc3)c(C#N)c(=O)[nH]2)cc1Cl`
result: label 0

query: Follow-up entry: CC(Sc1nc(-c2ccc(Cl)c(F)c2)c(C#N)c(=O)[nH]1)C(=O)Nc1ccc(S(N)(=O)=O)cc1 (racemic)
result: label 1

query: Follow-up entry: `N#Cc1c(-c2ccc(Cl)cc2)nc(SCC(=O)Nc2cccc(Cl)c2)[nH]c1=O`
result: label 1

query: Follow-up entry: `COc1cccc(-c2nc(SCC(=O)Nc3ccc(S(N)(=O)=O)cc3)[nH]c(=O)c2C#N)c1`
result: label 1

query: Follow-up entry: CCC(Sc1nc(-c2cccc(OC)c2)c(C#N)c(=O)[nH]1)C(=O)Nc1ccc(S(N)(=O)=O)cc1 (racemic)
result: label 1

* * *

# Protocol Details: Aqueous solubility of the compound in PBS buffer at pH 7.2 at 100 uM after 24 hrs
# Type: physicochemical
Reported Metric: solubility at 24 h, 100 µM
Please report the result as a number followed by the unit.

Consider the worked cases shown below.
query: Return reported solubility at 24 h, 100 µM; argument: CC(Sc1nc(-c2ccc(Cl)c(Cl)c2)c(C#N)c(=O)[nH]1)C(=O)Nc1ccc(S(N)(=O)=O)cc1 (racemic)
result: 30 µM

query: Follow-up entry: CC(Sc1nc(-c2ccc(Cl)cc2)c(C#N)c(=O)[nH]1)C(=O)Nc1ccc(S(N)(=O)=O)cc1 (racemic)
result: 58 µM

query: Follow-up entry: CCC(Sc1nc(-c2ccc(Cl)cc2)c(C#N)c(=O)[nH]1)C(=O)Nc1ccc(S(N)(=O)=O)cc1 (racemic)
result: 136 µM

New cases:
query: Return reported solubility at 24 h, 100 µM; argument: CC(Sc1nc(-c2ccc(Cl)c(F)c2)c(C#N)c(=O)[nH]1)C(=O)Nc1ccc(S(N)(=O)=O)cc1 (racemic)
result: 64 µM

* * *

# Protocol Details: Clearance in human liver microsomes at 1 uM up to 60 mins
# Format: ADME, Microsome
Doc: threshold 3 mL/min/kg (exclusive). Items with CLhep predicted at 1 µM beneath it return Criterion met; others return Criterion not met.

Below, 2 compounds whose answers are already recorded.
query: Below 3 mL/min/kg on CLhep predicted at 1 µM? Entry CC(Sc1nc(-c2ccc(Cl)c(F)c2)c(C#N)c(=O)[nH]1)C(=O)Nc1ccc(S(N)(=O)=O)cc1 (racemic)
result: Criterion not met

query: Follow-up entry: CC(Sc1nc(-c2ccc(Cl)cc2)c(C#N)c(=O)[nH]1)C(=O)Nc1ccc(S(N)(=O)=O)cc1 (racemic)
result: Criterion met

New cases:
query: Below 3 mL/min/kg on CLhep predicted at 1 µM? Entry CCC(Sc1nc(-c2ccc(Cl)cc2)c(C#N)c(=O)[nH]1)C(=O)Nc1ccc(S(N)(=O)=O)cc1 (racemic)
result: Criterion met

query: Follow-up entry: CC(Sc1nc(-c2ccc(Cl)c(Cl)c2)c(C#N)c(=O)[nH]1)C(=O)Nc1ccc(S(N)(=O)=O)cc1 (racemic)
result: Criterion met

query: Follow-up entry: `N#Cc1c(-c2ccc(Cl)cc2)nc(SCC(=O)Nc2ccc(S(N)(=O)=O)cc2)[nH]c1=O`
result: Criterion not met

query: Follow-up entry: CCC(Sc1nc(-c2cccc(OC)c2)c(C#N)c(=O)[nH]1)C(=O)Nc1ccc(S(N)(=O)=O)cc1 (racemic)
result: Criterion not met
